Measured values drawn from the supplement of paper PMC10307832 for this set.

Kindly state relative viability for each of the entries shown.
tested on: NCI-H2087; assay: relative viability (nuclei count vs DMSO), 5 days (fraction); higher = more cells survive; conditions: first compound 8 µM
No unit in the answer, please; the number alone is enough.

What value of relative viability has been recorded for this entry: C=C1C(=O)O[C@@H](CCCCCCCC)[C@@H]1C(=O)O [C-75] + Nc1ncn([C@H]2C[C@H](O)[C@@H](CO)O2)c(=O)n1 [Decitabine] (partner 2 µM)
0.231

What value of relative viability has been recorded for this entry: C=C1C(=O)O[C@@H](CCCCCCCC)[C@@H]1C(=O)O [C-75] + C[C@@H](Oc1cc(-c2cnn(C3CCNCC3)c2)cnc1N)c1c(Cl)ccc(F)c1Cl [Crizotinib] (partner 1 µM)
0.711

What value of relative viability has been recorded for this entry: C=C1C(=O)O[C@@H](CCCCCCCC)[C@@H]1C(=O)O [C-75] + C[C@]1(O)C[C@@H](c2nc(-c3ccc4ccc(-c5ccccc5)nc4c3)c3c(N)nccn32)C1 [Linsitinib] (partner 1 µM)
1

----------
test system: HCC-366; test: relative viability (nuclei count vs DMSO), 5 days (fraction); higher = more cells survive; conditions: first compound 0.5 µM
valueKind: relative viability
No unit in the answer, please; the number alone is enough.

Query the reported relative viability for HCC-366; item: CC1(C)CCC(c2ccc(Cl)cc2)=C(CN2CCN(c3ccc(C(=O)NS(=O)(=O)c4ccc(N[C@H](CCN5CCOCC5)CSc5ccccc5)c(S(=O)(=O)C(F)(F)F)c4)cc3)CC2)C1 [Navitoclax] + Cc1nc(Nc2ncc(C(=O)Nc3c(C)cccc3Cl)s2)cc(N2CCN(CCO)CC2)n1 [Dasatinib] (partner 0.075 µM)
0.646

Query the reported relative viability for HCC-366; item: CC1(C)CCC(c2ccc(Cl)cc2)=C(CN2CCN(c3ccc(C(=O)NS(=O)(=O)c4ccc(N[C@H](CCN5CCOCC5)CSc5ccccc5)c(S(=O)(=O)C(F)(F)F)c4)cc3)CC2)C1 [Navitoclax] + N=C(N)NC(=N)NCCc1ccccc1 [Phenformin] (partner 250 µM)
0.588

Query the reported relative viability for HCC-366; item: CC1(C)CCC(c2ccc(Cl)cc2)=C(CN2CCN(c3ccc(C(=O)NS(=O)(=O)c4ccc(N[C@H](CCN5CCOCC5)CSc5ccccc5)c(S(=O)(=O)C(F)(F)F)c4)cc3)CC2)C1 [Navitoclax] + Cc1nc(NC(=O)N2CCC[C@H]2C(N)=O)sc1-c1ccnc(C(C)(C)C(F)(F)F)c1 [Alpelisib] (partner 2 µM)
0.361

Query the reported relative viability for HCC-366; item: CC1(C)CCC(c2ccc(Cl)cc2)=C(CN2CCN(c3ccc(C(=O)NS(=O)(=O)c4ccc(N[C@H](CCN5CCOCC5)CSc5ccccc5)c(S(=O)(=O)C(F)(F)F)c4)cc3)CC2)C1 [Navitoclax] + NC(=O)Nc1cc(-c2cccc(F)c2)sc1C(=O)N[C@H]1CCCNC1 [AZD7762] (partner 0.2 µM)
0.214

----------
tested on: IA-LM; assay: relative viability (nuclei count vs DMSO), 5 days (fraction); higher = more cells survive; details: first compound 0.8 µM
Kindly state relative viability for each of the entries shown.

What value of relative viability has been recorded for this entry: C=C1C(=O)O[C@@H](CCCCCCCC)[C@@H]1C(=O)O [C-75] + C[C@]1(O)C[C@@H](c2nc(-c3ccc4ccc(-c5ccccc5)nc4c3)c3c(N)nccn32)C1 [Linsitinib] (partner 1 µM)
0.53

What value of relative viability has been recorded for this entry: Oc1nc(-c2ccc(C(F)(F)F)cc2)nc2c1CSCC2 [XAV939] + CC(C)C[C@H](NC(=O)[C@H](Cc1ccccc1)NC(=O)c1cnccn1)B(O)O [Bortezomib] (partner 0.002 µM)
0.607

What value of relative viability has been recorded for this entry: C=C1C(=O)O[C@@H](CCCCCCCC)[C@@H]1C(=O)O [C-75] + COc1cc2c(Oc3ccc(NC(=O)C4(C(=O)Nc5ccc(F)cc5)CC4)cc3F)ccnc2cc1OCCCN1CCOCC1 [Foretinib] (partner 0.25 µM)
1.02

What value of relative viability has been recorded for this entry: Oc1nc(-c2ccc(C(F)(F)F)cc2)nc2c1CSCC2 [XAV939] + CC1(C)CCC(c2ccc(Cl)cc2)=C(CN2CCN(c3ccc(C(=O)NS(=O)(=O)c4ccc(N[C@H](CCN5CCOCC5)CSc5ccccc5)c(S(=O)(=O)C(F)(F)F)c4)cc3)CC2)C1 [Navitoclax] (partner 0.5 µM)
0.781

What value of relative viability has been recorded for this entry: C=C1C(=O)O[C@@H](CCCCCCCC)[C@@H]1C(=O)O [C-75] + CC(C)C[C@H](NC(=O)[C@H](Cc1ccccc1)NC(=O)c1cnccn1)B(O)O [Bortezomib] (partner 0.002 µM)
0.728

----------
test system: NCI-H1793; assay: relative viability (nuclei count vs DMSO), 5 days (fraction); higher = more cells survive; details: first compound 1.265 µM
valueKind: relative viability
No unit in the answer, please; the number alone is enough.

What value of relative viability has been recorded for this entry: O=C(O)c1ccc(-c2c[nH]c3ncc(-c4ccccc4)cc23)cc1C1CCCC1 + NC(=O)Nc1cc(-c2cccc(F)c2)sc1C(=O)N[C@H]1CCCNC1 [AZD7762] (partner 0.2 µM)
0.798

What value of relative viability has been recorded for this entry: O=C(O)c1ccc(-c2c[nH]c3ncc(-c4ccccc4)cc23)cc1C1CCCC1 + Cc1cc(Nc2cc(N3CCN(C)CC3)nc(Sc3ccc(NC(=O)C4CC4)cc3)n2)n[nH]1 [Tozasertib] (partner 0.1 µM)
0.266

What value of relative viability has been recorded for this entry: O=C(O)c1ccc(-c2c[nH]c3ncc(-c4ccccc4)cc23)cc1C1CCCC1 + Nc1nc2[nH]cc(CCc3ccc(C(=O)N[C@@H](CCC(=O)O)C(=O)O)cc3)c2c(=O)[nH]1 [Pemetrexed] (partner 0.2 µM)
0.882

----------
test system: LCLC-97TM1; assay: relative viability (nuclei count vs DMSO), 5 days (fraction); higher = more cells survive; conditions: first compound 0.01581 µM
Kindly state relative viability for each of the entries shown.
No unit in the answer, please; the number alone is enough.

Query the reported relative viability for LCLC-97TM1; item: CC1(C)CCC(c2ccc(Cl)cc2)=C(CN2CCN(c3ccc(C(=O)NS(=O)(=O)c4ccc(N[C@H](CCN5CCOCC5)CSc5ccccc5)c(S(=O)(=O)C(F)(F)F)c4)cc3)CC2)C1 [Navitoclax] + O=C(CCCCCCC(=O)Nc1ccccc1)NO [Vorinostat] (partner 1 µM)
0.745

Query the reported relative viability for LCLC-97TM1; item: CC1(C)CCC(c2ccc(Cl)cc2)=C(CN2CCN(c3ccc(C(=O)NS(=O)(=O)c4ccc(N[C@H](CCN5CCOCC5)CSc5ccccc5)c(S(=O)(=O)C(F)(F)F)c4)cc3)CC2)C1 [Navitoclax] + Nc1ncn([C@H]2C[C@H](O)[C@@H](CO)O2)c(=O)n1 [Decitabine] (partner 2 µM)
0.268

----------
system: EMC-BAC-2; experiment: relative viability (nuclei count vs DMSO), 5 days (fraction); higher = more cells survive; details: first compound 0.5 µM
valueKind: relative viability
No unit in the answer, please; the number alone is enough.

What value of relative viability has been recorded for this entry: CC1(C)CCC(c2ccc(Cl)cc2)=C(CN2CCN(c3ccc(C(=O)NS(=O)(=O)c4ccc(N[C@H](CCN5CCOCC5)CSc5ccccc5)c(S(=O)(=O)C(F)(F)F)c4)cc3)CC2)C1 [Navitoclax] + Cc1nc(NC(=O)N2CCC[C@H]2C(N)=O)sc1-c1ccnc(C(C)(C)C(F)(F)F)c1 [Alpelisib] (partner 2 µM)
0.759

What value of relative viability has been recorded for this entry: CC1(C)CCC(c2ccc(Cl)cc2)=C(CN2CCN(c3ccc(C(=O)NS(=O)(=O)c4ccc(N[C@H](CCN5CCOCC5)CSc5ccccc5)c(S(=O)(=O)C(F)(F)F)c4)cc3)CC2)C1 [Navitoclax] + COc1cccc2cc(-c3nc([C@H]4CC[C@H](C(=O)O)CC4)n4ncnc(N)c34)[nH]c12 [OSI-027] (partner 0.5 µM)
0.372

What value of relative viability has been recorded for this entry: CC1(C)CCC(c2ccc(Cl)cc2)=C(CN2CCN(c3ccc(C(=O)NS(=O)(=O)c4ccc(N[C@H](CCN5CCOCC5)CSc5ccccc5)c(S(=O)(=O)C(F)(F)F)c4)cc3)CC2)C1 [Navitoclax] + COc1cc2c(Oc3ccc(NC(=O)C4(C(=O)Nc5ccc(F)cc5)CC4)cc3F)ccnc2cc1OCCCN1CCOCC1 [Foretinib] (partner 0.25 µM)
1.05

What value of relative viability has been recorded for this entry: CC1(C)CCC(c2ccc(Cl)cc2)=C(CN2CCN(c3ccc(C(=O)NS(=O)(=O)c4ccc(N[C@H](CCN5CCOCC5)CSc5ccccc5)c(S(=O)(=O)C(F)(F)F)c4)cc3)CC2)C1 [Navitoclax] + Nc1ncn([C@H]2C[C@H](O)[C@@H](CO)O2)c(=O)n1 [Decitabine] (partner 2 µM)
0.911
